Tested on: OS-RC-2
Experiment: Cytotoxicity against human OS-RC2 cells assessed as reduction in cell viability measured after 72 hrs by CCK8 assay
Format: functional, cell-based
Details: OS-RC-2, 72 h
Items are presented alongside their recorded pIC50.
Scale explanation: pIC50 corresponds to minus log10 of a concentration expressed in moles per litre.

C/C=C(\C)[C@H](O[C@@H]1O[C@H](CO)[C@@H](O)[C@H](O)[C@H]1O)[C@H](C)/C=C(C)/C=C/C/C(C)=C/Cc1nc(OC)cc(O)c1C = 4.85

Any idea what pIC50 was measured for COc1nc(C/C=C(\C)C/C(C)=C/C(C)=C/[C@@H](C)[C@@H](O)/C(C)=C/[C@@](C)(O)[C@H](C)O)c(C)c(O)c1OC ?
5.39

Any idea what pIC50 was measured for CNC(=O)c1cc(Oc2ccc(NC(=O)Nc3ccc(Cl)c(C(F)(F)F)c3)cc2)ccn1 ?
4.85

Any idea what pIC50 was measured for C/C=C(\C)[C@H](O)[C@H](C)/C=C(C)/C=C(\C)C/C(C)=C/Cc1nc(OC)c(OC)c(O)c1C ?
4.77

Any idea what pIC50 was measured for COc1nc(C/C=C(\C)C/C(C)=C/C(C)=C/[C@@H](C)[C@@H](O)[C@]2(C)O[C@H]2C)c(C)c(O)c1OC ?
4.66

Any idea what pIC50 was measured for C/C=C(\C)[C@H](O)[C@H](C)/C=C(C)/C=C/C/C(C)=C/Cc1nc(OC)c(OC)c(O)c1C ?
5.28
